Run description: clinical
Experimental conditions: human, in vivo, po, 225 mg, AUC0–12, geometric mean
Endpoint name: AUC(0-t) (µM·h)
Hi! Could you send only the number? It should be in µM·h, unit omitted.

Reported AUC(0-t), molecule C=CCn1c(=O)c2cnc(Nc3ccc(N4CCN(C)CC4)cc3)nc2n1-c1cccc(C(C)(C)O)n1 : ____ 4.94

----------
Run description: clinical
Experimental conditions: human, in vivo, AUC0–12, arithmetic mean (SD)
Endpoint name: AUC(0-t) (µM·h)
Expressed in µM·h, but write only the number.

Any idea what AUC(0-t) was measured for C=CCn1c(=O)c2cnc(Nc3ccc(N4CCN(C)CC4)cc3)nc2n1-c1cccc(C(C)(C)O)n1 ? 11.3

----------
Run description: clinical
Experimental conditions: human, in vivo, Cmax, median
Endpoint name: Cmax

Given the entry C=CCn1c(=O)c2cnc(Nc3ccc(N4CCN(C)CC4)cc3)nc2n1-c1cccc(C(C)(C)O)n1 [adavosertib] , report its measured Cmax. 1520 nM

----------
Run description: clinical
Experimental conditions: human, in vivo, AUC0–12, median
Endpoint name: AUC(0-t) (µM·h)
The response must be a number in µM·h with no trailing unit.

I have this compound here, C=CCn1c(=O)c2cnc(Nc3ccc(N4CCN(C)CC4)cc3)nc2n1-c1cccc(C(C)(C)O)n1 , and I need its recorded AUC(0-t). 10.6

----------
Run description: clinical
Experimental conditions: human, in vivo, Cmax, arithmetic mean (SD)
Endpoint name: Cmax (nM)
Express the result in nM but write the number alone.

// returns reported Cmax for input C=CCn1c(=O)c2cnc(Nc3ccc(N4CCN(C)CC4)cc3)nc2n1-c1cccc(C(C)(C)O)n1 [adavosertib] 1500

----------
Run description: clinical
Experimental conditions: human, in vivo
Endpoint name: Tmax (h)
Enter your answer as a number in h; do not include the unit.

Param item = C=CCn1c(=O)c2cnc(Nc3ccc(N4CCN(C)CC4)cc3)nc2n1-c1cccc(C(C)(C)O)n1 ; retrieve measured Tmax. 3
